Target: human MGL from HeLa cells (Homo sapiens, UniProt Q99685)
Construct: combining endogenously expressed MGL from HeLa cells with test compounds; endogenous in cells; host or cells: HeLa cells / cell homogenates
Sequence (Q99685 whole entry): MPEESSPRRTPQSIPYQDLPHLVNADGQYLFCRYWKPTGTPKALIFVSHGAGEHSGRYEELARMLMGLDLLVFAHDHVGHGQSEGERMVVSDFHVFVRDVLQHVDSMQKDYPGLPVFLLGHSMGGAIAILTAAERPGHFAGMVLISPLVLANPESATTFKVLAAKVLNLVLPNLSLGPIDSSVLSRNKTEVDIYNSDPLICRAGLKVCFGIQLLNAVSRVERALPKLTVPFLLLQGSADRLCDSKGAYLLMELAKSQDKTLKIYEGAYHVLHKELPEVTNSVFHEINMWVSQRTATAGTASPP
Experiment: In vitro MGL activity assay: [glycerol-1,3-3H]-oleyl glycerol cleavage by MGL from HeLa cells
Format: biochemical
Settings: 300 nM [Glycerol-1,3-3H]-oleyl glycerol, one hour
Returns: string. Value is Yes if measured IC50 is below 100 nM, and No if it is greater than or equal to it.

I'd appreciate it if you could check whether C[C@H]1c2nn(C)c(-c3cc(F)c(F)c(F)c3)c2CCN1C(=O)c1cccn2ncc(F)c12 [Example 377] has IC50 smaller than 100 nM. Yes

I'd appreciate it if you could check whether C[C@H]1c2nn(C)c(-c3cc(F)c(F)c(F)c3)c2CCN1C(=O)c1n[nH]c2ncc(F)cc12 [Example 428] has IC50 smaller than 100 nM. Yes

I'd appreciate it if you could check whether C[C@H]1c2nn(C)c(-c3cc(F)c(F)c(F)c3)c2CCN1C(=O)c1ccc2nc(O)ccc2c1 [Example 517] has IC50 smaller than 100 nM. Yes

I'd appreciate it if you could check whether C[C@H]1c2nn(C)c(-c3cc(F)c(F)c(F)c3)c2CCN1C(=O)c1ncnc2c1ccn2C [Example 466] has IC50 smaller than 100 nM. Yes

I'd appreciate it if you could check whether C[C@H]1c2nn(C)c(-c3cc(F)c(F)c(F)c3)c2CCN1C(=O)c1n[nH]c2ccncc12 [Example 435] has IC50 smaller than 100 nM. Yes

I'd appreciate it if you could check whether C[C@H]1c2nn(C)c(-c3cc(F)c(F)c(F)c3)c2CCN1C(=O)c1cnn(C)c1[C@H]1CC1F (mixture of isomers) [Example 339] has IC50 smaller than 100 nM. Yes

I'd appreciate it if you could check whether C[C@H]1c2nn(C)c(-c3cccc4c3OC(F)(F)O4)c2CCN1C(=O)c1ccc2ncccc2c1 [Example 542] has IC50 smaller than 100 nM. Yes

I'd appreciate it if you could check whether C[C@H]1c2nn(C)c(-c3cc(F)c(F)c(F)c3)c2CCN1C(=O)c1ccc2c(c1)CCOC2 [Example 578] has IC50 smaller than 100 nM. Yes

I'd appreciate it if you could check whether C[C@H]1c2nn(C)c(-c3cc(F)c(F)c(F)c3)c2CCN1C(=O)c1cccn2ccnc12 [Example 392] has IC50 smaller than 100 nM. No

I'd appreciate it if you could check whether C[C@H]1c2nn(C)c(-c3ccc(C(F)F)nc3)c2CCN1C(=O)c1ccc2ncccc2c1 [Example 521] has IC50 smaller than 100 nM. No

I'd appreciate it if you could check whether C[C@H]1c2nn(C)c(-c3cc(F)c(F)c(F)c3)c2CCN1C(=O)c1cnc2c(c1)COCC2 [Example 567] has IC50 smaller than 100 nM. No

I'd appreciate it if you could check whether C[C@H]1c2nn(C)c(-c3cc(F)c(F)c(F)c3)c2CCN1C(=O)c1cccc2oc(=O)[nH]c12 [Example 584] has IC50 smaller than 100 nM. No

I'd appreciate it if you could check whether C[C@H]1c2nn(C)c(-c3cc(F)c(F)c(F)c3)c2CCN1C(=O)c1cnc2cccc(F)c2c1 [Example 545] has IC50 smaller than 100 nM. Yes

I'd appreciate it if you could check whether C[C@H]1c2nn(C)c(-c3ccc(F)cc3F)c2CCN1C(=O)c1ccc2ncccc2c1 [Example 502] has IC50 smaller than 100 nM. No

I'd appreciate it if you could check whether C[C@H]1c2nn(C)c(-c3cc(F)c(F)c(F)c3)c2CCN1C(=O)c1cn(C)c2ccc(F)cc12 [Example 356] has IC50 smaller than 100 nM. Yes
